assay: Stability of compound in simulated gastric fluid assessed as parent compound remaining at pH 1.2 measured for 120 mins by LC-MS/MS analysis; type: ADME; settings: read-out: Stability
measure: remaining at 2 h

[[record]]
compound = "O=C1OC(O)C(NCc2cn(-c3ccc(F)c(F)c3)nn2)=C1Cl (stereo unspecified)"
value = "≥ 70%"


----------
experiment: Stability of compound in simulated physiological fluid assessed as compound remaining at pH 7.4 measured for 120 mins by LC-MS analysis; assay type: physicochemical; settings: read-out: Stability
measure: remaining at 2 h

[[record]]
compound = "O=C1OC(O)C(NCc2cn(-c3ccc(F)c(F)c3)nn2)=C1Cl (stereo unspecified)"
value = "≥ 70%"


----------
test system: Plasmodium falciparum; test: Antimalarial activity against Plasmodium falciparum 3D7; format: functional, organism-based
pIC50: −log10 of the molar value.
Reported pIC50 by item:
measure: pIC50

[[record]]
molecule = "CC(C)(C)c1ccc(-n2cc(CNC3=C(Cl)C(=O)OC3O)nn2)cc1 (configuration not stated)"
value = 5.36

[[record]]
molecule = "O=C1OC(O)C(NCc2cn(-c3ccc(F)c(F)c3)nn2)=C1Cl (configuration not stated)"
value = 5.44

[[record]]
molecule = "COc1ccc(-n2cc(CNC3=C(Cl)C(=O)OC3O)nn2)cc1 (configuration not stated)"
value = 5.31

[[record]]
molecule = "O=C1OC(O)C(NCc2cn(-c3ccc4c(c3)OCO4)nn2)=C1Cl (configuration not stated)"
value = 5.36

[[record]]
molecule = "O=C1OC(O)C(NCc2cn(-c3ccccc3Oc3ccccc3)nn2)=C1Cl (configuration not stated)"
value = 5.33

[[record]]
molecule = "Cc1ccc(C)c(-n2cc(CNC3=C(Cl)C(=O)OC3O)nn2)c1 (configuration not stated)"
value = 5.34

[[record]]
molecule = "O=C1OC(O)C(NCc2cn(-c3ccc(F)cc3)nn2)=C1Cl (configuration not stated)"
value = 5.35


----------
assay: Clearance in golden hamster at 50 mg/kg, po measured after 5 mins to 24 hrs by LC-MS/MS analysis; format: ADME, organism-based, Mesocricetus auratus; conditions: in vivo, time 5-1440 min
measure: CL/F (mL/min/kg)

[[record]]
compound = "O=C1OC(O)C(NCc2cn(-c3ccc(F)c(F)c3)nn2)=C1Cl (stereo unspecified)"
value = 207


----------
experiment: Selectivity index, ratio of CC50 for cytotoxicity against mouse J774.A1 cells to IC50 for antileishmanial activity against Leishmania donovani MHOM/IN/80/Dd8 amastigotes infected in mouse J774.A1 cells; format: toxicity, cell-based; conditions: read-out: Ratio CC50/IC50
Recorded selectivity ratio split into classes L: < 8; M: ≥ 8 and < 10; H: ≥ 10

[[record]]
compound = "O=C1OC(O)C(NCc2cn(-c3ccc(F)c(C(F)(F)F)c3)nn2)=C1Cl (centres undefined)"
cat = "H"

[[record]]
compound = "Cc1ccc(-n2cc(CNC3=C(Cl)C(=O)OC3O)nn2)cc1C (centres undefined)"
cat = "M"

[[record]]
compound = "O=C1OC(O)C(NCc2cn(-c3ccc(F)c(Cl)c3)nn2)=C1Cl (centres undefined)"
cat = "L"

[[record]]
compound = "CCCCCCCCCCCCCCCCOP(=O)([O-])OCC[N+](C)(C)C"
cat = "L"

[[record]]
compound = "COc1cc(-n2cc(CNC3=C(Cl)C(=O)OC3O)nn2)cc(OC)c1OC (centres undefined)"
cat = "L"

[[record]]
compound = "C#CCNC1=C(Cl)C(=O)OC1O (centres undefined)"
cat = "M"

[[record]]
compound = "O=C1OC(O)C(NCc2cn(-c3cccc(C(F)(F)F)c3)nn2)=C1Cl (centres undefined)"
cat = "H"

[[record]]
compound = "O=C1OC(O)C(NCc2cn(-c3ccc(F)c(F)c3)nn2)=C1Cl (centres undefined)"
cat = "H"


Ref: ChEMBL document CHEMBL5329145
